- Experimental system: Glc(a1-4)Glc
- Test details: glycan array binding signal (z-score within array); higher = stronger binding
- Reported conditions: glycan notation: IUPAC condensed, linker removed
The entries come from a sample that favours the strongest signals as a whole.
Property label: glycan array binding signal (z-score)
API note: the answer field is a bare number with no unit suffix.

Example results:
{"columns": ["Binder", "Quantitative readout"],
 "data": [
  ["FaeGab (Escherichia coli) (protein) WMTGDFNGSVDIGGSITADDYRQKWEWKVGTGLNGFGNVLNDLTNGGTKLTITVTGNKPILLGRTKEAFATPVSGGVDGIPQIAFTDYEGASVKLRNTDGETNKGLAYFVLPMKNAEGTKVGSVKVNASYAGVFGKGGVTSADGELFSLFADGLRAIFYGGLTTTVSGAALTSGSAAAARTELFGSLSRNDILGQIQRVNANITSLVDVAGSYREDMEYTDGTVVSAAYALGIANGQTIEATFNQAVTTSTQWSAPLNVAITYY", 8.87],
  ["RS-IIL (Ralstonia solanacearum) (protein) AQQGVFTLPANTSFGVTAFANAANTQTIQVLVDNVVKATFTGSGTSDKLLGSQVLNSGSGAIKIQVSVNGKPSDLVSNQTILANKLNFAMVGSEDGTDNDYNDGIAVLNWPLG", -0.266],
  ["Epa11 (Candida glabrata) (protein) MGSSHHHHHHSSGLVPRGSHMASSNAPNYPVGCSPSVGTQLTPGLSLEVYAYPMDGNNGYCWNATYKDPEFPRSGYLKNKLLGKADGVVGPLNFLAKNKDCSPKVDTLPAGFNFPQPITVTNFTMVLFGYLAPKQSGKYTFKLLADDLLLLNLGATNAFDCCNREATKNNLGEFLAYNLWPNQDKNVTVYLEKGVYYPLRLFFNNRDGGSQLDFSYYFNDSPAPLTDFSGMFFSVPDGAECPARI", -1.42],
  ["Epa13 (Candida glabrata) (protein) MGSSHHHHHHSSGLVPRGSHMASDSSENGYAHGCSPSIRAKLKPGLSMEIYSYALRPTDDHCWDSAYLDPMFPRTGYLTHKLLGKAEGIIGPLNFLAKNPACIPAVSTLPLAFHFPKPFTITNFTMLLYGYLSPKKTGKYTFKLLADDLLLMNFGADNAFDCCSHDATKDNIGEYVAYSVWPGVNKNVTVYLESGIYYPLRLFFNNRDAIAQLDFAYYFNDSPIRQTDFSGMFFSIPDSVKCPANI", -0.521],
  ["SSR2 (Sclerotium rolfsii) (protein) MVYKITVRVYQTNPDAFFHPVEKTVWKYANGGTWSITDDQHVLTMGGSGTSGTLRFHADNGESFTATFGVHNYKRWCDIVTNLAADETGMVINQQYYSQKNREEARERQLSNYQVKNAKGRNFQIVYTEAEGNDLHANLIIG", -0.262]
]}

-- ask For the binder shown here, FaeGac (Escherichia coli) (protein) WMTGDFNGSVDIGGSITADDYRQKWEWKVGTGLNGFGNVLNDLTNGGTKLTITVTGNKPILLGRTKEAFATPVTGGVDGIPHIAFTDYEGASVVLRKPDGETNKNGLAYFVLPMKNAGGTKVGSVKVNASYAGVLGRGGVTSADGELLSLFADGLSSIFYGGLPRGSELSAGSAAAARTKLFGSLSRDDILGQIQRVNANVTSLVDVAGSYRENMEYTDGNVVSAAYALGIANGQTIEATFNQAVTTSTQWSAPLNVAITYY , give the reported glycan array binding signal (z-score).
-- reply 5.96

// data source = the supplement of paper PMC8728848
